- Tested on: lung cancer cell A549
- test-summary: Effects on the adhesive ability of lung cancer cell A549
- Format: cell-based, human
- setup-conditions: Final concentration 1 x 1.0*10^(−5) mol/L
I'd be grateful if you could share measured Inhibition rate, adhesion ability of human lung cancer cell A549 for these entries.
Numbers only, in %.

Solved cases below.
molecule: Nc1ccc2c(Oc3ccc(NC(=O)Nc4ccc(Br)c(C(F)(F)F)c4)cc3)cncc2c1
value-reported: 94.77
//
molecule: O=C(Nc1ccc(Oc2ccncn2)cc1)Nc1ccc(Cl)c(C(F)(F)F)c1 [Compound B′, reference compound]
value-reported: 69.26
//
molecule: Cc1cc(Oc2ccc(NC(=O)Nc3ccc(Cl)c(C(F)(F)F)c3)cc2)c[nH]1
value-reported: 90.53
//
molecule: CNC(=O)c1cc(Oc2ccc(NC(=O)Nc3ccc(Cl)c(C(F)(F)F)c3)cc2)ccn1 [Sorafenib, reference compound]
value-reported: 72.66
//
molecule: CCNC(=O)c1cc(Oc2ccc(NC(=O)Nc3ccc(Cl)c(OC)c3)c(C)c2)c2ccc([N+](=O)[O-])cc2n1
value-reported: 75.72

In the following, a different molecule is considered.
Bench note, lung cancer cell A549: entry `COc1ccc2nccc(Oc3ccc(NC(=O)Nc4ccc(F)c(C(F)(F)F)c4)cc3)c2c1` , its Inhibition rate, adhesion ability of human lung cancer cell A549 = 97.50

###

- Tested on: lung cancer cell A549
- test-summary: Effects on the adhesive ability of lung cancer cell A549
- Type: cell-based, human
- setup-conditions: Final concentration 1 x 1.0*10^(−5) mol/L
Provide the recorded Inhibition rate, adhesion ability of human lung cancer cell A549 for the entries that follow.
Answers are plain numbers, in %.

Field: example entries. Status: answers known.
item-smiles: O=C(Nc1ccc(Oc2ncnc3cc(F)ccc23)cc1)Nc1ccc(Br)c(C(F)(F)F)c1
unit-tag: %
value-reported: 90.22
--
item-smiles: Nc1ccc2c(Oc3ccc(NC(=O)Nc4ccc(F)c(C(F)(F)F)c4)cc3)cncc2c1
unit-tag: %
value-reported: 68.57
--
item-smiles: Nc1ccc2c(Oc3ccc(NC(=O)Nc4ccc(Cl)c(C(F)(F)F)c4)cc3)cncc2c1
unit-tag: %
value-reported: 63.51
--
item-smiles: CNC(=O)c1ncc(Oc2ccc(NC(=O)Nc3ccc(F)c(C(F)(F)F)c3)cc2)c(OC)n1
unit-tag: %
value-reported: 61.56
--
item-smiles: COc1ncncc1Oc1ccc(NC(=O)Nc2ccc(Br)c(C(F)(F)F)c2)cc1
unit-tag: %
value-reported: 73.30

For each of the items listed, what is its Inhibition rate, adhesion ability of human lung cancer cell A549?
1. CCc1ccc(NC(=O)Nc2ccc(Oc3ccnc4cc(F)c(OC)cc34)cc2)cc1C(F)(F)F
2. CCc1cc(NC(=O)Nc2ccc(Oc3ccnc4cc(F)c(OC)cc34)cc2)ccc1Cl
3. CCc1ccc(NC(=O)Nc2ccc(Oc3ccnc4cc(F)c(C)cc34)cc2)cc1C(F)(F)F
4. CNC(=O)c1cc(Oc2ccc(NC(=O)Nc3ccc(Cl)c(C(F)(F)F)c3)cc2)c(C)[nH]1
5. CCc1cc(NC(=O)Nc2ccc(Oc3ccnc4cc(F)c(C)cc34)cc2)ccc1Cl
6. O=C(Nc1ccc(Oc2ncnc3cc(F)ccc23)cc1)Nc1ccc(F)c(C(F)(F)F)c1

Solution:
1. 64.73
2. 66.77
3. 76.54
4. 63.39
5. 77.59
6. 95.31
